src = the supplement of paper PMC10567573

B1: SOAT1 (parent)
chain: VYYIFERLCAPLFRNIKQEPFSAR

# Variants of: B1
# Assay Overview: protein stability index of a GFP-peptide fusion (GPS, HEK-293T) (PSI 1-6); higher = more stable;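 further: lentivirally expressed fusions sorted by FACS into six bins by GFP to DsRed ratio, PSI derived from sequencing read proportions per bin multiplied by bin number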
# Recorded Conditions: c terminus: a fixed tail appended
Parameter Measured: protein stability index
Note: the reply should be a number with no unit written.

As a guide, the following entries are already answered.
Q. Request the reported protein stability index associated with `L12I`
A. 3.19

Q. Request the reported protein stability index associated with `Q18D`
A. 2.9

Q. Request the reported protein stability index associated with `A23R`
A. 1.9

Q. Request the reported protein stability index associated with `A23Q`
A. 2.02

Q. Request the reported protein stability index associated with `S22F`
A. 2.66

Q. Request the reported protein stability index associated with `S22T`
A. 2.36

Q. Request the reported protein stability index associated with `A23C`
A. 1.65

Q. Request the reported protein stability index associated with `Y2A`
A. 2.52

Q. Request the reported protein stability index associated with `E6N`
A. 2.65

Q. Request the reported protein stability index associated with `F5I`
A. 1.64

***
Q. Request the reported protein stability index associated with `F21Q`
A. 1.77

Q. Request the reported protein stability index associated with `E6A`
A. 2.38

Q. Request the reported protein stability index associated with `K17F`
A. 1.74
